# target.system: VLA-4 (Homo sapiens, UniProt P05556+P13612)
# Construct: host or cells: Jurkat (human T lymphoblastic line)
# Sequence (P13612 34-1032): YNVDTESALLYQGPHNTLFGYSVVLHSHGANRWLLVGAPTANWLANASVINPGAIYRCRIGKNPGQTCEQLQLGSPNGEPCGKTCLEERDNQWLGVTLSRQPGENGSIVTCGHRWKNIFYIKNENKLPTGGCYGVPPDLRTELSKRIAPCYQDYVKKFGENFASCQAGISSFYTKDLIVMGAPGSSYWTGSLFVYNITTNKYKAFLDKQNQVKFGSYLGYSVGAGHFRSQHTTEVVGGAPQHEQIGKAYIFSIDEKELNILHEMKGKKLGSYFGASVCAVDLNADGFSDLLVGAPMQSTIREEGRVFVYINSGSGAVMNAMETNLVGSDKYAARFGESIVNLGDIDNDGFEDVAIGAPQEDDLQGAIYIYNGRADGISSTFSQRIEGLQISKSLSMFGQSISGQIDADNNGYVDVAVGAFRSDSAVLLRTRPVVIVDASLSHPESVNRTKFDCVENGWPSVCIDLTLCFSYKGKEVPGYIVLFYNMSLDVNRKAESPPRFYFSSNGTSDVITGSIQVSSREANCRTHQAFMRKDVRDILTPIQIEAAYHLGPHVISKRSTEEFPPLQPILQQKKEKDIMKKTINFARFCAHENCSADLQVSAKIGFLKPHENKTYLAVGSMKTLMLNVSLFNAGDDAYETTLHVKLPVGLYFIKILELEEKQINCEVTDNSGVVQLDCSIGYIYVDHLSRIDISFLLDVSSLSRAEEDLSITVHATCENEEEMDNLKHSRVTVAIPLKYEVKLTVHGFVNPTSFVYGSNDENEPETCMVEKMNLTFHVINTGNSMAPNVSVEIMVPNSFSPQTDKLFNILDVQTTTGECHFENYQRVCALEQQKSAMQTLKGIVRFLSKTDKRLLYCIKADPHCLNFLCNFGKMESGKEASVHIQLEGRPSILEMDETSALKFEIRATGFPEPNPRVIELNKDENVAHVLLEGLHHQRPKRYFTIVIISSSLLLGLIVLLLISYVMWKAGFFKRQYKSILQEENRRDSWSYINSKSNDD
# Sequence (P05556 21-798): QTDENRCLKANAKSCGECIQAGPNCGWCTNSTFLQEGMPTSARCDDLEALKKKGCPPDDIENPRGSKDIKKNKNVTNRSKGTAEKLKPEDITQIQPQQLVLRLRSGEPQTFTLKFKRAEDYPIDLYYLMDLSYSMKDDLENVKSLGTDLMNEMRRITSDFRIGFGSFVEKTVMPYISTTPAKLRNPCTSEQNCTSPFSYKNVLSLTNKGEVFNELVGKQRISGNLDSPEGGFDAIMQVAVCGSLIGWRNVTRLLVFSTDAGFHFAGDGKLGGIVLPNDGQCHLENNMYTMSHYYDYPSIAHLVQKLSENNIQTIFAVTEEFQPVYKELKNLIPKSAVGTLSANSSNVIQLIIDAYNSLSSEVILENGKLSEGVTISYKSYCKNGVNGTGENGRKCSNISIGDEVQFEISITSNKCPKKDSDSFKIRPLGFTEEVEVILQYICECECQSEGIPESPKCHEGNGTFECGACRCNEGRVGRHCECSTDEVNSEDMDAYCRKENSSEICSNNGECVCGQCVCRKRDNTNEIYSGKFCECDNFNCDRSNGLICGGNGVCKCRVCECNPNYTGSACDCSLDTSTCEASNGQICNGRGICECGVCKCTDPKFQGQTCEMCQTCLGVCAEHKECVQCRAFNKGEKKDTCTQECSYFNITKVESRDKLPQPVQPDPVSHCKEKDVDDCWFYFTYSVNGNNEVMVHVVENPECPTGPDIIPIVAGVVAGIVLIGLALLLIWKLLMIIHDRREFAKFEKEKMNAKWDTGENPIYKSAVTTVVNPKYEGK
# Format: cell-based
# test.settings: relative to standard peptide SEQ ID NO:3 (=1), normalized IC50; about one-tenth or less of SEQ ID NO:3 assigned zero
Square brackets hold non-standard residues; d marks the D form. Peptide text beside a SMILES is read from it. * marks the point of attachment. Cha = N[C@@H](CC1CCCCC1)C(=O)O; Piperidide = C1CCN(*)CC1; Pyrrolidide = C1CCN(*)C1; PhAc = O=C(Cc1ccccc1)*
Please enter t where RELATIVE POTENCY (inhibition of VLA-4 binding CS-1) is greater than or equal to 200, and f where it is lower.

>  <compound>
CC(C)C[C@H](NC(=O)Cc1ccccc1)C(=O)N[C@@H](CC(=O)O)C(=O)N[C@@H](Cc1ccccc1)C(=O)N1CCCC1 [X L D F Z phenylacetyl pyrrolidinamide] (PhAc-Leu-Asp-Phe-Pyrrolidide)

>  <assigned.class>
t

$$$$
>  <compound>
CC(C)C[C@H](NC(=O)Cc1ccccc1)C(=O)N[C@@H](CC(=O)O)C(=O)N[C@@H](Cc1ccccc1)C(=O)N1CCCCC1 [X L D F Z phenylacetyl piperidinamide] (PhAc-Leu-Asp-Phe-Piperidide)

>  <assigned.class>
t

$$$$
>  <compound>
CC(C)C[C@H](NC(=O)Cc1ccccc1)C(=O)N[C@@H](CC(=O)O)C(=O)N(Cc1ccccc1)Cc1ccccc1 [X L D Z phenylacetyl dibenzylamide]

>  <assigned.class>
f

$$$$
>  <compound>
CC(C)C[C@H](NC(=O)Cc1ccccc1)C(=O)N[C@@H](CC(=O)O)C(=O)NC1Cc2ccccc2N(CC(C)C)C1=O (some centres unmarked)

>  <assigned.class>
f

$$$$

Shift focus to the following entry.
Is the recorded value of RELATIVE POTENCY (inhibition of VLA-4 binding CS-1) equal to or greater than 200 for this compound? NC(=O)[C@H]1CCCN1C(=O)[C@H](Cc1ccccc1)NC(=O)[C@H](CC(=O)O)NC(=O)[C@H](CC1CCCCC1)NC(=O)Cc1ccccc1 (PhAc-[Cha]DF[dP]-NH2)
t

---

# target.system: VLA-4 (Homo sapiens, UniProt P05556+P13612)
# Construct: host or cells: Jurkat (human T lymphoblastic line)
# Format: cell-based
# test.settings: relative to standard peptide SEQ ID NO:3 (=1), normalized IC50; about one-tenth or less of SEQ ID NO:3 assigned zero
Square brackets hold non-standard residues; d marks the D form. Peptide text beside a SMILES is read from it. * marks the point of attachment. NHDecyl = CCCCCCCCCCN*; PhAc = O=C(Cc1ccccc1)*; NHBu = CCCCN*
Could you please report measured RELATIVE POTENCY (inhibition of VLA-4 binding CS-1) for the items listed next?

Dear colleague, could you please provide RELATIVE POTENCY (inhibition of VLA-4 binding CS-1) for the molecules listed below?
1. CC(C)C[C@H](NC(=O)Cc1ccccc1)C(=O)N[C@@H](CC(=O)O)C(=O)N[C@@H](Cc1ccccc1)C(=O)N1CC[N+](C)(C)CC1
2. CCCCCCCCCCCCCCCCCC(=O)OC1CCN(C(=O)[C@H](Cc2ccccc2)NC(=O)[C@H](CC(=O)O)NC(=O)[C@H](CC(C)C)NC(=O)Cc2ccccc2)CC1
3. CC(C)C[C@H](NC(=O)Cc1ccccc1)C(=O)N[C@@H](CC(=O)O)C(=O)N[C@@H](Cc1ccccc1)C(=O)N1CCC(O)CC1
4. CC(C)C[C@H](NC(=O)[C@H](CC(=O)O)NC(=O)Cc1ccccc1)C(=O)N[C@@H](Cc1ccccc1)C(=O)N1CCC[C@@H]1C(N)=O [X L D F p phenylacetyl amide scrambled, reference compound] (PhAc-DLF[dP]-NH2)
5. CCCCNC(=O)[C@H](Cc1ccccc1)NC(=O)[C@H](CC(=O)O)NC(=O)[C@H](CC(C)C)NC(=O)Cc1ccccc1 [X L D F Z phenylacetyl n-butylamide] (PhAc-Leu-Asp-Phe-NHBu)
6. CCCCCCCCCCNC(=O)[C@@H]1CCCN1C(=O)[C@H](Cc1ccccc1)NC(=O)[C@H](CC(=O)O)NC(=O)[C@H](CC(C)C)NC(=O)Cc1ccccc1 [X L D F P Z phenylacetyl decylamide] (PhAc-LDFP-NHDecyl)

313
< 1
603
0
3
2

Source of measurements: patent US6117840A
